test system: Rattus norvegicus; assay: Heart by blood ratio of the radiolabeled compound (2-5 uCi) in rat 2 mins after i.v. administration; details: in vivo, iv
measure: heart/blood ratio

A. CC(C)(S)CN1CCN(CC(C)(C)S)CC1
B. CC(C)(S)CN1CCCN(CC(C)(C)S)CC1
[in] Given the listed items, does A or B have the lesser reported heart/blood ratio? State the label of the item chosen.
[out] A

* * *

tested on: Rattus norvegicus; experiment: Heart by blood ratio of the radiolabeled compound (2-5 uCi) in rat 65 mins after i.v. administration; details: in vivo, iv
measure: heart/blood ratio

I. CC(C)(S)CN1CCCN(CC(C)(C)S)CC1
II. CC(C)(S)CN1CCN(CC(C)(C)S)CC1
[in] Of the two listed items, which has the higher heart/blood ratio? First: I Second: II Response format: the label of the selected entry.
[out] I

Where these numbers come from: ChEMBL document CHEMBL1126014
